- System: P. falciparum stage V gametocytes
- PROTOCOL_NOTES: Gametocytocidal ATP bioluminescence assay (single point 5 μM and 1 μM, dose-response)
- Format: cell-based, Plasmodium falciparum
- SETTINGS: P. falciparum gametocytes, 5 μM single concentration, 48 h, decrease of ATP level (S1 Table)
ENDPOINT_LABEL: % Inhibition (%)
One number for each entry, in %.

In [3]: df
Out[3]:
                                   compound  unit_label  reported_result
0             Clc1ccc2c(NCCc3ccccn3)ccnc2c1           %                8
1  CN(c1cc(NC(=O)c2cccs2)ccn1)C1CCN(Cc2cccc(C#N)c2)CC1           %               40
2            Clc1ccc(C=NNc2ccnc3ccccc23)cc1           %              -69
3  COc1cc2ncnc(Nc3ccc(OCc4ccccc4)c(I)c3)c2cc1OC           %              -25
4  CC(CN1CCN(CC(c2ccc(F)cc2)N2CCN(C)CC2)CC1)C(=O)c1ccc(O)cc1.O=C(O)/C=C\C(=O)O (centres unmarked)           %               30

I have 3 compounds here; please give me % Inhibition for each one.
1. Cc1cccc(CN2CCC(Oc3ccc(NC(=O)c4cccs4)cc3Cl)CC2)n1
2. Clc1ccc(-c2nc3ccc(-c4ccc5nc(-c6ccc(Cl)cc6)[nH]c5c4)cc3[nH]2)cc1
3. O=C(Nc1ccc(OC2CCN(Cc3ccccc3)CC2)c(Cl)c1)c1ccco1

A.
1: 24; 2: 1.65; 3: 63

====

Can you tell me IC50 for the items I'm about to list?
- Test system: P. falciparum stage V gametocytes
- PROTOCOL_NOTES: Gametocytocidal ATP bioluminescence assay (single point 5 μM and 1 μM, dose-response)
- Assay type: cell-based, Plasmodium falciparum
- SETTINGS: Plasmodium falciparum; P. falciparum gametocytes; average; read-out: IC50 Pf Gametocytes average, IC50 (µM) average
Answers are plain numbers, in µM.

                                   molecule                experimental_target  unit_label  reported_result
0  CC[C@H]1CN2CCc3cc(OC)c(OC)cc3[C@@H]2C[C@@H]1C[C@H]1NCCc2cc(OC)c(OC)cc21 [TCMDC-125531]  P. falciparum stage V gametocytes          µM             0.35

I have 2 molecules here; please give me IC50 for each one.
1. Fc1ccc2[nH]c(-c3ccc(-c4ccc(CN5CCC(CCN6CCCCC6)CC5)cc4)s3)nc2c1 [TCMDC-133932]
2. c1cc(Nc2nc(-c3ccc(-c4csc(Nc5ccncc5)n4)cc3)cs2)ccn1 [TCMDC-139725]

A.
[0.14, 0.26]

I have 2 molecules here; please give me IC50 for each one.
1. CN1CCN(CCCCNc2c3ccccc3nc3ccccc23)CC1 [TCMDC-137479]
2. COc1ccc(CCNc2nc(NCc3ccccc3)c3cc(OC)c(OC)cc3n2)cc1OC [TCMDC-132017]

A.
1.32
5.6

====

- Tested on: HepG2 cells
- PROTOCOL_NOTES: Cytotoxicity in HepG2 cells (intracellular ATP, ATPlite, 48 h)
- Assay type: cell-based, human
- SETTINGS: HepG2 cells; IC50 per ratio column head; unit inferred
Can you tell me pIC50 for the items I'm about to list?
Give bare numbers, as −log10 of the molar value.

# count of solved cases: 5
                                 smiles_str  endpoint_label  reported_result
0  FC(F)(F)COc1ccc(CNCCCCCCNCc2ccc(OCC(F)(F)F)c3ccccc23)c2ccccc12           pIC50             5.52
1  CCCCOc1cc(OC)c2ccccc2c1CCNCCCCNCCc1c(OCCCC)cc(OC)c2ccccc12           pIC50             5.52
2  CN(C)S(=O)(=O)c1cc(-c2ccc3nccc(-c4cccc(S(N)(=O)=O)c4)c3c2)cnc1N           pIC50             4.83
3  COc1ccccc1CCNc1nc(C)cc(N[C@@H](Cc2ccccc2)C(=O)NCc2cccc(F)c2)n1           pIC50             5.20
4  COc1ccc(CCNCCCCCCNCCc2ccc(-c3ccccc3)cc2)cc1OC           pIC50             5.49

I have 3 compounds here; please give me pIC50 for each one.
1. COc1cccc(CCNCCCCCCNCCc2ccc(Cl)cc2)c1
2. Cc1nc(-c2cccc(Nc3ccnc4cc(-c5nccs5)ccc34)c2)no1
3. CCOc1ccc2ccccc2c1CNCCCCCCNCc1c(OCC)ccc2ccccc12

A.
1: 5.21; 2: 5.12; 3: 5.76

====

- Tested on: luciferase reaction (BacTiter-Glo)
- PROTOCOL_NOTES: Interference assay (inhibition of the BacTiter-Glo luciferase reaction)
- Format: biochemical
- Design: concentration or dose not given beside the values
- SETTINGS: ATP interference assay
ENDPOINT_LABEL: % Control luminiscence (%)
Answers are plain numbers, in %.

# count of solved cases: 3
In [3]: df
Out[3]:
                                   compound  reported_result
0  CN1CCN(CCCCNc2c3ccccc3nc3ccccc23)CC1 [TCMDC-137479]              100
1  CN(C)CCNC(=O)c1ccc(-c2cnc3ccc(NCc4ccc(Cl)c(Cl)c4)nn23)cc1 [TCMDC-136678]              100
2  CCN(CC)CCN(Cc1ccc(-c2ccc(C(F)(F)F)cc2)cc1)C(=O)Cn1cc(Cc2cnn(C)c2)c(=O)nc1/C=C/c1cccc(F)c1F [TCMDC-140964]              100

Please turn your attention to the following entry.
Q. Given the entry COC(=O)c1sc(-c2ccc(Cl)cc2)cc1N(CCCN1CCC(N2CCCCC2)CC1)S(=O)(=O)c1ccc(C)cc1 [TCMDC-135561] , what % Control luminiscence was observed with luciferase reaction (BacTiter-Glo)?
A. 93

====

- Tested on: HepG2 cells
- PROTOCOL_NOTES: Cytotoxicity in HepG2 cells (intracellular ATP, ATPlite, 48 h)
- Assay type: cell-based, human
- SETTINGS: HepG2 cells; IC50 per ratio column head; unit inferred
ENDPOINT_LABEL: pIC50
Numbers only, as −log10 of the molar value.

In [3]: df
Out[3]:
                                   compound  experimental_target  reported_result
0  CN1CCC(N(Cc2ccc(-c3ccc(Cl)cc3)cc2)C(=O)Cn2c(CCc3cccc(F)c3F)cc(=O)c3ccccc32)CC1 [TCMDC-141357]          HepG2 cells             5.17
1  CC(C)(C)N1CCC(N(Cc2ccc(-c3ccc(C(F)(F)F)cc3)cc2)C(=O)Cn2c(CCc3cccc(F)c3F)cc(=O)c3cccnc32)CC1 [TCMDC-136011]          HepG2 cells             5.51
2  C#CCCOc1ccc2ccccc2c1CNCCCCCCNCc1c(OCCC#C)ccc2ccccc12 [TCMDC-137832]          HepG2 cells             5.26
3  Nc1c(I)cc(C(=O)Nc2ccc3nc4c(c(N)c3c2)CCCC4)cc1I [TCMDC-142289]          HepG2 cells             5.10

I have 2 compounds here; please give me pIC50 for each one.
1. CN(C)CCN(C)Cc1cccc(-c2ccc3c(Nc4ccc(F)cc4Cl)ccnc3c2)c1 [TCMDC-138416]
2. COc1cc2ccccc2cc1CCNCCCCNCCc1cc2ccccc2cc1OC [TCMDC-137944]

A.
1: 5.44; 2: 5.47

I have 5 compounds here; please give me pIC50 for each one.
1. COc1ccc(CCNCCCCCCNCCc2ccc(Cl)c3ccccc23)cc1OC [TCMDC-131270]
2. Cc1ccc(-n2nc(-c3ccccc3)c3cc(C(=O)NCCN)sc32)cc1 [TCMDC-124776]
3. CN(CCCNCc1cccc2ccccc12)CCCNCc1cccc2ccccc12 [TCMDC-137905]
4. c1ccc2c(NCCCCCCCCNc3ccnc4ccccc34)ccnc2c1 [TCMDC-137751]
5. CC(C)CNCc1ccc(-c2cccc(CN(C(=O)NC3CCCCC3)C3CCN(Cc4ccccc4)CC3)c2)cc1 [TCMDC-140628]

A.
[5.49, 5.11, 5.24, 5.43, 5.74]

I have 6 compounds here; please give me pIC50 for each one.
1. CCOc1ccccc1CCNC(C)Cc1ccc(C(=O)Nc2ccc(CC(C)NCCc3cccc(Cl)c3)cc2)cc1 (centres unmarked) [TCMDC-139805]
2. COc1ccc2ccc(OC)c(CNCCCCCCNCc3c(OC)ccc4ccc(OC)cc34)c2c1 [TCMDC-137796]
3. COc1ccc(CCNC(C)Cc2ccc(C(=O)Nc3ccc(CC(C)NCCc4cccc(Cl)c4)cc3)cc2)cc1 (centres unmarked) [TCMDC-139750]
4. O=C(Nc1ccc(F)c(C(F)(F)F)c1)NC1CCN(CCCCCNC(=O)C2CC2c2ccc(Cl)c(Cl)c2)CC1 (centres unmarked) [TCMDC-136259]
5. O=C(NCCCCN1CCC(c2c[nH]c3ccc(-c4ccccc4)cc23)CC1)c1ccc(-c2ccccc2)cc1 [TCMDC-139064]
6. CC(C)Oc1ccc2ccccc2c1CNCCCCCCNCc1c(OC(C)C)ccc2ccccc12 [TCMDC-137965]

A.
5.46
5.47
5.62
5.19
5.03
5.62

I have 7 compounds here; please give me pIC50 for each one.
1. CCCCCOc1ccc(C(=NC)N(CCCCC)CCCCC)c2ccccc12 [TCMDC-137703]
2. O=C(Nc1cccc(-c2cccc(-c3ccc(F)cc3)n2)c1)c1ccc([N+](=O)[O-])o1 [TCMDC-124807]
3. CC(CCCCCC(=O)Nc1ccc(CC(C)NCCc2cccc(Cl)c2)cc1)NCCc1cccc(Cl)c1 (centres unmarked) [TCMDC-139800]
4. Cc1cc(OCCN2CCCCC2)ccc1NC(=O)c1cccc2c(=O)n(Cc3ccc(Cl)cc3)cnc12 [TCMDC-136727]
5. CSc1ccc2ccccc2c1CCNCCCCNCCc1c(SC)ccc2ccccc12 [TCMDC-137763]
6. Nc1c(Cl)cc(C(O)CNCCCCCOCCCc2ccc(O)c3ncccc23)cc1Cl.O=C(O)/C=C/C(=O)O (centres unmarked) [TCMDC-132088]
7. CCOc1cc(CNCCCCCCNCc2cc(OCC)c(OCC)c3ccccc23)c2ccccc2c1OCC [TCMDC-137939]

A.
1. 5.20
2. 5.16
3. 5.49
4. 5.33
5. 5.78
6. 5.35
7. 5.57

I have 2 compounds here; please give me pIC50 for each one.
1. Oc1c(CN2CCC(Cc3ccccc3)CC2)cc(Cl)c2cccnc12 [TCMDC-124594]
2. FC(F)(F)COc1c(CCNCCCCNCCc2ccc3ccccc3c2OCC(F)(F)F)ccc2ccccc12 [TCMDC-137169]

A.
[5.02, 5.55]
